test system: ROCK1; settings: concentration: 1 μM, replicates: in singlicate; n = 1;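 further: KINOMEscan kinase panel screen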

| SMILES ENTRY | %Inh |
| --- | --- |
| COc1cccc(C(=O)Nc2cccc(Oc3ccc4nc(NC(=O)C5CC5)cn4n3)c2)c1 | 0% |
| Cn1cc(-c2ccc3c(c2)CCN3C(=O)Cc2cccc(Cl)c2)c2c(N)ncnc21 | 0% |
| COC(=O)Nc1nc2cc(Oc3ccc(NC(=O)Nc4cc(C(F)(F)F)ccc4F)cn3)ccc2[nH]1.Cl.Cl | 51% |
| COc1cccc(-c2ccc3c(NC(=O)C4CC4)n[nH]c3n2)c1 | 38% |

====

system: FRK; conditions: concentration: 1 μM, replicates: in singlicate; n = 1

| MOLECULE | %Inh / % |
| --- | --- |
| Nc1ncnc2c1nc(-c1ccccc1)n2-c1ccccc1 | 0 |
| CN(C)Cc1ccc(-c2ccc3c(Nc4ccc(Oc5ccccn5)cc4)ccnc3c2)o1 | 25 |
| COc1cccc(NC(=O)NC2CCN(c3ccnc(Nc4cc(OC)c(OC)c(OC)c4)n3)C2)c1 (stereo not drawn) | 0 |
| CC(=O)N1CCN(c2ccc(Nc3nccc(-c4sc(C(C)C)nc4-c4cccc(NS(=O)(=O)c5cccc(Cl)c5)c4)n3)cn2)CC1 | 70 |
| c1ccc(-c2n[nH]cc2Nc2ccnc3ccccc23)nc1 | 0 |
| Cc1ccc(C(=O)N2CC[C@@H](O)C2)cc1-n1c(C)cc(OCc2ccc(F)cc2F)c(Br)c1=O | 14 |
| Clc1ccc(-c2nn3ncccc3c2-c2ccnc(Nc3ccc4c(c3)OCCO4)n2)cc1 | 0 |
| COc1cccc(C(=O)Nc2cccc(Oc3ccc4nc(NC(=O)C5CC5)cn4n3)c2)c1 | 94.9 |
| Nc1n[nH]c2cnc(-c3ccccc3)cc12 | 10 |
| Nc1ncc(-c2cccnc2)c2scc(-c3ccc4c(c3)CCN4C(=O)Cc3ccccc3)c12 | 6 |
| FC(F)(F)c1ccc(/C=C/c2cncnc2Nc2ccc3[nH]c(Cc4ccccc4)nc3c2)cc1 | 10 |
| Cc1ccc(S(=O)(=O)Nc2ccc(Nc3nccc(Nc4cccc5[nH]ncc45)n3)cc2)cc1 | 73 |

====

system: ERBB2; details: concentration: 1 μM, replicates: in singlicate; n = 1
REPORTED PROPERTY: %Inh (%)

| MOLECULE | TEST SYSTEM | REPORTED PROPERTY | MEAS VALUE |
| --- | --- | --- | --- |
| c1ccc(-c2cnc3nccnn23)cc1 | ERBB2 | %Inh | 0 |
| O=C(Nc1cccc(-c2nn3ncccc3c2-c2ccnc(Nc3ccccc3)n2)c1)c1c(F)cccc1F | ERBB2 | %Inh | 95.2 |
| Cl.Cl.NCC(C(=O)Nc1cc(Br)c(-c2ccnc3[nH]ccc23)s1)c1ccccc1 (centres unmarked) | ERBB2 | %Inh | 5 |
| C[C@@H](Oc1cc(-n2cnc3cc(-c4ccnc(NCCS(C)(=O)=O)c4)ccc32)sc1C(N)=O)c1ccccc1Cl | ERBB2 | %Inh | 0 |
| CCn1c(-c2nonc2N)nc2c(C#CC(C)(C)O)nc(OC[C@H](N)c3ccccc3)cc21 | ERBB2 | %Inh | 12 |
| Clc1ccc(-c2nn3ncccc3c2-c2ccnc(Nc3ccc4c(c3)OCCO4)n2)cc1 | ERBB2 | %Inh | 32 |
| COc1cc(Nc2nccc(N3CCC(NC(=O)Nc4cccc(C(C)=O)c4)C3)n2)cc(OC)c1OC (centres unmarked) | ERBB2 | %Inh | 2 |
| O=C(O)C(F)(F)F.O=C(O)C(F)(F)F.O=c1[nH]ccc2nc(N[C@@H]3CCCNC3)nc(Nc3ccc(S(=O)(=O)N4CCOCC4)cc3)c12 | ERBB2 | %Inh | 2 |

====

tested on: TLK1; conditions: concentration: 1 μM, replicates: in singlicate; n = 1
Known %Inh of a selection of compounds

| COMPOUND | READOUT UNITS | %Inh |
| --- | --- | --- |
| Cc1ccc(S(=O)(=O)Nc2ccc(Nc3nccc(Nc4cccc5[nH]ncc45)n3)cc2)cc1 | % | 0 |
| CC(C)(C)c1ccc2nccc(Nc3cccc(O)c3)c2c1 | % | 12 |
| CC(=O)N1CCN(c2ccc(Nc3nccc(-c4sc(C(C)C)nc4-c4cccc(NS(=O)(=O)c5cccc(Cl)c5)c4)n3)cn2)CC1 | % | 0 |
| COc1cc(Nc2nccc(N3CCC(NC(=O)c4cc5ccccc5s4)C3)n2)cc(OC)c1OC (stereo not drawn) | % | 8 |
| O=C(Nc1n[nH]c2cc(-c3ccoc3)ccc12)C1CC1 | % | 7 |
| Cc1ccc(C(=O)N2CC[C@@H](O)C2)cc1-n1c(C)cc(OCc2ccc(F)cc2F)c(Br)c1=O | % | 13 |
| O=C(Nc1cccc(Oc2ccc3nc(NC(=O)C4CC4)cn3n2)c1)c1ccccc1C(F)(F)F | % | 0 |
| Nc1ncc(-c2cccnc2)c2scc(-c3ccc4c(c3)CCN4C(=O)Cc3ccccc3)c12 | % | 0 |
| Nc1ncnc2c1nc(-c1ccccc1)n2-c1ccccc1 | % | 0 |
| Cl.c1ccc(-c2ccc3c(Nc4ccc5[nH]ccc5c4)ccnc3c2)nc1 | % | 1 |
| Oc1cc(Nc2ccnc3cc(I)ccc23)ccc1F | % | 10 |
| Cc1occc1-c1ncc(OC[C@@H](N)Cc2c[nH]c3ccccc23)cc1-c1ccc2[nH]nc(C)c2c1.O=C(O)C(F)(F)F | % | 0 |
| O=C(Nc1cccc(-c2nn3ccccc3c2-c2ccnc(Nc3cccc(F)c3)n2)c1)c1c(F)ccc(F)c1Cl | % | 0 |
| CCc1ccc(-c2ccc3c(c2)-c2c(cnn2C)S(=O)(=O)N3C)cc1 | % | 0 |
| COCCOCCOc1cc2ncc3c4ccc(C#N)cc4[nH]c3c2cc1OC | % | 0 |
| Cl.c1ccc(-c2ccc3c(Nc4ccc5[nH]ncc5c4)ccnc3c2)nc1 | % | 15 |
| Clc1ccc(-c2nn3ncccc3c2-c2ccnc(Nc3ccc4c(c3)OCCO4)n2)cc1 | % | 0 |
| COc1ccc(Nc2nccc(NCCNC(=O)c3cc4ccccc4s3)n2)cc1 | % | 0 |
| O=C(Nc1cccc(-c2nn3ccccc3c2-c2ccnc(Nc3cccc(C(F)(F)F)c3)n2)c1)c1c(F)cccc1F | % | 0 |
| CCn1c(-c2nonc2N)nc2c(C#CC(C)(C)O)ncc(OCCCCN)c21.O=C(O)C(F)(F)F.O=C(O)C(F)(F)F | % | 0 |
| Cn1cc(-c2ccc3c(c2)CCN3C(=O)Cc2cccc(F)c2)c2c(N)ncnc21 | % | 0 |
| Cl.Cl.NCC(NC(=O)c1cc(-c2ccccc2)c(-c2ccnc3[nH]ccc23)s1)c1ccccc1 (stereo not drawn) | % | 54 |
| O=C(NC1CCN(c2ccnc(Nc3ccc(F)cc3)n2)C1)c1cc2ccccc2s1 (stereo not drawn) | % | 7 |
| COc1cc2c(cc1OCCN1CCNCC1)ncc1c3ccc(C#N)cc3[nH]c21 | % | 25 |
| Cn1cc(-c2[nH]c3cc(NC(=O)[C@H](N)C4CCCCC4)cc4c3c2C=NNC4=O)cn1 | % | 8 |
| CCS(=O)(=O)c1ccc(OC)c(Nc2nccc(-c3c(-c4cccc(NC(=O)c5c(F)cccc5F)c4)nn4ncccc34)n2)c1 | % | 3 |
| CSc1cccc2c(-c3ccncn3)c(-c3ccc(F)cc3)nn12 | % | 0 |
| CN(c1ccc(NC(=O)Nc2cc(C(F)(F)F)ccc2F)cc1)c1ccnc(Nc2ccc(S(N)(=O)=O)cc2)n1 | % | 0 |
| Fc1ccc(-c2ncn(C3CCNCC3)c2-c2ccnc(Oc3ccc(-c4ccccc4)cc3)n2)cc1 | % | 3 |
| CN1CCN(Cc2cccc(-c3ccc4c(Nc5ccc(Oc6ccccc6)cc5)ccnc4c3)c2)CC1 | % | 78 |
| Nc1ncc(-c2ccc3nccc(-c4ccncc4)c3c2)cc1S(=O)(=O)N1CCOCC1 | % | 0 |
| COc1cc(Nc2nccc(-c3c(-c4cccc(NC(=O)c5c(F)cccc5F)c4)nn4ncccc34)n2)cc(OC)c1OC | % | 42 |
| NCCCC(NC(=O)c1cc(Br)c(-c2ccnc3[nH]ccc23)s1)c1ccccc1.O=C(O)C(F)(F)F.O=C(O)C(F)(F)F (stereo not drawn) | % | 0 |

====

Known %Inh of a selection of molecules
test system: MTOR; conditions: concentration: 1 μM, replicates: in singlicate; n = 1
REPORTED PROPERTY: %Inh

| MOLECULE | MEAS VALUE |
| --- | --- |
| O=C(O)C(F)(F)F.O=C(O)C(F)(F)F.O=c1[nH]ccc2nc(N[C@@H]3CCCNC3)nc(Nc3ccc(S(=O)(=O)N4CCOCC4)cc3)c12 [GSK2177277] | 9% |
| COc1cc(Nc2nccc(N3CCC(NC(=O)Nc4cccc(C(C)=O)c4)C3)n2)cc(OC)c1OC (stereo not drawn) [GSK1379753] | 0% |
| Cc1cccc(Nc2nc(N[C@H]3CCNC3)ncc2C(N)=O)c1.Cl [GSK2197149] | 0% |
| Cc1ccc(C(=O)N2CC[C@@H](O)C2)cc1-n1c(C)cc(OCc2ccc(F)cc2F)c(Br)c1=O | 45% |
| NCCCC(NC(=O)c1cc(Br)c(-c2ccnc3[nH]ccc23)s1)c1ccccc1.O=C(O)C(F)(F)F.O=C(O)C(F)(F)F (stereo not drawn) [GSK1287544] | 3% |
| O=C(Nc1cccc(-c2nn3ccccc3c2-c2ccnc(Nc3cccc(C(F)(F)F)c3)n2)c1)c1c(F)cccc1F [GSK292658] | 0% |
| FC(F)(F)c1ccc(/C=C/c2cncnc2Nc2ccc3[nH]c(Cc4ccccc4)nc3c2)cc1 [GW709199] | 28% |
| CC(C)(C)c1ccc2nccc(Nc3cccc(O)c3)c2c1 [GW856795] | 0% |
| Cl.Cl.NCC(NCc1ccc(-c2ccnc3[nH]ccc23)s1)c1ccccc1 (stereo not drawn) [GSK1321565] | 43% |
| CN1CCN(CCCNc2nccc(-c3c(-c4ccc(F)cc4)nn4cc(C(F)(F)F)ccc34)n2)CC1 [GW621581] | 0% |
| CN1CCN(Cc2cccc(-c3ccc4c(Nc5ccc(Oc6ccccc6)cc5)ccnc4c3)c2)CC1 [GW578342] | 15% |
| CCn1c(-c2nonc2N)nc2c(C#CC(C)(C)O)ncc(OCCCCN)c21.O=C(O)C(F)(F)F.O=C(O)C(F)(F)F [GSK507274] | 19% |
| COc1ccc(Nc2nccc(NCCNC(=O)c3cc4ccccc4s3)n2)cc1 [GSK1379896] | 0% |
| COc1cc2c(cc1OCCN1CCNCC1)ncc1c3ccc(C#N)cc3[nH]c21 | 19% |
| Cn1cc(-c2ccc3c(c2)CCN3C(=O)Cc2cccc(F)c2)c2c(N)ncnc21 [GSK2603358] | 16% |
| O=C(Nc1cccc(-c2nn3ccccc3c2-c2ccnc(Nc3cccc(F)c3)n2)c1)c1c(F)ccc(F)c1Cl [GSK357952] | 0% |
| CSc1cccc2c(-c3ccncn3)c(-c3ccc(F)cc3)nn12 [GW514786] | 24% |
| COc1ccc(CNC(=O)NC2CCN(c3ccnc(Nc4ccc(F)cc4)n3)CC2)cc1 [GSK1379788] | 18% |
| COc1cccc(-c2ccc3c(NC(=O)C4CC4)n[nH]c3n2)c1 [SB-710903] | 20% |
| Cn1cc(-c2ccc3c(c2)CCN3C(=O)Cc2cccc(Cl)c2)c2c(N)ncnc21 [GSK2606590] | 0% |
| COc1ccc(Nc2nccc(N3CCC(NC(=O)Nc4cccc(OC)c4)C3)n2)cc1 (stereo not drawn) [GSK1379742] | 10% |
| Nc1ncc(-c2cccnc2)c2scc(-c3ccc4c(c3)CCN4C(=O)Cc3ccccc3)c12 [GSK683281] | 0% |
| O=c1[nH]cc(-c2ccc(N3CCOCC3)cc2)c2sc(-c3cn[nH]c3)cc12 [GSK2276055] | 8% |
| CN(C)Cc1ccc(-c2ccc3c(Nc4ccc(Oc5ccccn5)cc4)ccnc3c2)o1 [GW567148] | 8% |
| COc1cccc(NC(=O)NC2CCN(c3ccnc(Nc4cc(OC)c(OC)c(OC)c4)n3)C2)c1 (stereo not drawn) [GSK1379763] | 7% |
| Cc1ccc(S(=O)(=O)Nc2ccc(Nc3nccc(Nc4cccc5[nH]ncc45)n3)cc2)cc1 [GSK581271] | 5% |
| Cl.NC(=O)c1cccc(Nc2nccc(Nc3ccc(Oc4c(Cl)cccc4Cl)c(Cl)c3)n2)c1 [GW659009] | 0% |
| CC(=O)Nc1nc2cnc(Nc3cc(NC(=O)c4cccc(C5(C#N)CC5)c4Cl)ccc3C)nc2s1 | 4% |
| O=C(NC1CCN(c2ccnc(Nc3ccc(F)cc3)n2)C1)c1cc2ccccc2s1 (stereo not drawn) [GSK1379716] | 25% |
| Clc1ccc(-c2nn3ncccc3c2-c2ccnc(Nc3ccc4c(c3)OCCO4)n2)cc1 [GW829116] | 0% |
| c1ccc(Oc2ccc(Nc3ccnc4cc(-c5ccc(CNCCN6CCOCC6)o5)ccc34)cc2)nc1 [GW567145] | 23% |
| CCCCc1nn2ncccc2c1-c1ccnc(Nc2ccc(N3CCN(C)CC3)cc2)n1 [GW684941] | 16% |
| Oc1cc(Nc2ccnc3cc(I)ccc23)ccc1F [GW552771] | 11% |
